- assay-target: PCSK9 (Homo sapiens, UniProt Q8NBP7;Q8NBP7 Q8NBP7:31-152,Q8NBP7:153-692)
- Sequence (Q8NBP7 31-152, chain 1 of 2): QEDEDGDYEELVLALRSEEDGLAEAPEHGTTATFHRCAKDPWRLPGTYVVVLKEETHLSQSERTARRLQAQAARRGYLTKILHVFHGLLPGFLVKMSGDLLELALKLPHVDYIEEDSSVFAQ
- Sequence (Q8NBP7 153-692, chain 2 of 2): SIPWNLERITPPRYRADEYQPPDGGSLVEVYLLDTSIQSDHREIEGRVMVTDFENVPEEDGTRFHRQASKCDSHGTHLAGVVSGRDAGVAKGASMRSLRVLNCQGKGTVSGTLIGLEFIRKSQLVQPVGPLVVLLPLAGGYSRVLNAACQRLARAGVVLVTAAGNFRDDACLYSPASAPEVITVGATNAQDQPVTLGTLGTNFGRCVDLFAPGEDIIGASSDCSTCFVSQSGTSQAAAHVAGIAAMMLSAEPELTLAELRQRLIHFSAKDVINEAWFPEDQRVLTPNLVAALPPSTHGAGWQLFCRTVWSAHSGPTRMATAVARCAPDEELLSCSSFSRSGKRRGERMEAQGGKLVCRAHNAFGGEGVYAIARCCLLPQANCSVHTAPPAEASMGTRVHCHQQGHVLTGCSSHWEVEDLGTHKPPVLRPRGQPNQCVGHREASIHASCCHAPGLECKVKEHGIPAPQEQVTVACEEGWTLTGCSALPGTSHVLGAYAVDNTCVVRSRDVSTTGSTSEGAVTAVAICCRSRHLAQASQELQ
- measurement-protocol: SPR; 0.9x HBS-EP, salmon sperm DNA 1 mg/ml, 25 C
- run-conditions: tags: ACROBiosystems PC9-H5223; label: 5' dual biotin-iSp18
quantity-name: pKd
Quick note: pKd means taking -log10 of the concentration in moles per liter.

[ask] For the binder PCSK9-A5 (ssDNA, HFNAP, C5 side chain on the 5' pyrimidine of each of the 15 codons in the variable region (19-63): CCA cyclopropyl, CGT/CTT/CTG cyclopentyl, TAC imidazole, TGA/TGC primary alcohol, TTC allylamine, TTT phenol, CCC cyclopropyl, CGG/CAC isopentyl) DNA: CGAATCAGATTGGACCAGCCACGTTACTGATTCTTCTACCGTTTTTGCCCCCGGCACCTTCTGGAGTCCAGATGTAGGTAG , what pKd is on record?
[reply] 7.01
